# experimental.system: NaV1.5 (Homo sapiens (Human))
# Sequence (Q14524 other isoform, or with tags, fused parts or gaps): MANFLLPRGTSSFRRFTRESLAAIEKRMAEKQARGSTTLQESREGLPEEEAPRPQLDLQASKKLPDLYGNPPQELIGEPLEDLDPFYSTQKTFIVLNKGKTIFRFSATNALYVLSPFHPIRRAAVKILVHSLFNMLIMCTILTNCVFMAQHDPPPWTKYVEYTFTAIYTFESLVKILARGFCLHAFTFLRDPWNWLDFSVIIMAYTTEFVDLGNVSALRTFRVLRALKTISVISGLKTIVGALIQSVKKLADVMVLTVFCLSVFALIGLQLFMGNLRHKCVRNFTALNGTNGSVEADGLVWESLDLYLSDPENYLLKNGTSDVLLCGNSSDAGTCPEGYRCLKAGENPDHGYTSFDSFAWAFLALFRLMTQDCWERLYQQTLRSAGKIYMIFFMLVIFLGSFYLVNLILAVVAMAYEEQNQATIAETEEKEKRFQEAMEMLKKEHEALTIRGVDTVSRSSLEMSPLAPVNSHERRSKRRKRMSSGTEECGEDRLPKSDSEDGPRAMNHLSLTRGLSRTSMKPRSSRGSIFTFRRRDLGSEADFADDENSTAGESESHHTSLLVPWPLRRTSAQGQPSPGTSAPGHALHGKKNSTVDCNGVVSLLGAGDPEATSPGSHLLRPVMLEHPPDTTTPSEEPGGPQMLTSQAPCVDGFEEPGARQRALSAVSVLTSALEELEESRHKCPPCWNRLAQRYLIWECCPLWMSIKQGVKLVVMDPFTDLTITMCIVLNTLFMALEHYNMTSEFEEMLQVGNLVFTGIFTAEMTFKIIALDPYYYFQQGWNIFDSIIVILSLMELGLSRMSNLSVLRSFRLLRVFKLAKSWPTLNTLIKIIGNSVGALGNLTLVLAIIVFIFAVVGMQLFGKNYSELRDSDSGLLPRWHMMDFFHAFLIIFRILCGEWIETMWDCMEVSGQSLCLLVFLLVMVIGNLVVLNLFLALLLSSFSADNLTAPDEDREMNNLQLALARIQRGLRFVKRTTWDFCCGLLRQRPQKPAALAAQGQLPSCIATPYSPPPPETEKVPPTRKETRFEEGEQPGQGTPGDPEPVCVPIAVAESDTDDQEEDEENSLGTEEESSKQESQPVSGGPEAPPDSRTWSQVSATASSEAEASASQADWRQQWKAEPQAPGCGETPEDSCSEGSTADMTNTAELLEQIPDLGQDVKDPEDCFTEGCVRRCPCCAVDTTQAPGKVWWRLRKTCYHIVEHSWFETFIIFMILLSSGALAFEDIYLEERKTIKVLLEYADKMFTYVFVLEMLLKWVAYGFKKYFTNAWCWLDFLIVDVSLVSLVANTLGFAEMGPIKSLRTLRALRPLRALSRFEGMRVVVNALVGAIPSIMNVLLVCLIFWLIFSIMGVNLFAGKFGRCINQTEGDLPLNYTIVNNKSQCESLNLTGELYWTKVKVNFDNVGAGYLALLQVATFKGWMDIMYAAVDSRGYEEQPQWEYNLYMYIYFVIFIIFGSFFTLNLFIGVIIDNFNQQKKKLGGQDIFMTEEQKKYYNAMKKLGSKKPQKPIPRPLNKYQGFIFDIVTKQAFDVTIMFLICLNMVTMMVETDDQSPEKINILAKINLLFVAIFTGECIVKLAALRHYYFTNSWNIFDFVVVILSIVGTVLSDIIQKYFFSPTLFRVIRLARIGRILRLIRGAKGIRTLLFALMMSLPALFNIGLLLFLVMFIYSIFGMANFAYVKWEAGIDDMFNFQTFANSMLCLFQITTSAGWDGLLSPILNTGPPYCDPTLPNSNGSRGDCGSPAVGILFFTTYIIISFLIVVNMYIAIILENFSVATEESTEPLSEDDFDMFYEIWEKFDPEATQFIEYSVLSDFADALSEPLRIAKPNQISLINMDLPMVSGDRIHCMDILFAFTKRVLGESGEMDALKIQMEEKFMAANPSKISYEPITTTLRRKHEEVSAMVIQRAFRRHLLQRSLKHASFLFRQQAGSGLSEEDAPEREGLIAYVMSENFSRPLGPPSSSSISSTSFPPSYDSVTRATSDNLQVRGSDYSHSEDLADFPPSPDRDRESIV
# measurement.description: Sodium Influx Assay (Flux), NaV1.5
# measurement.parameters: read-out: Flux NaV1.5 IC50; Trex HEK293 cells, ANG2 dye, inactivated state
Structures can show the parent of a compound that is named as a salt.
IC50 reference
Reply with just the number (in µM).

{"compound": "C[C@H](Oc1cc(F)c(S(=O)(=O)Nc2nccs2)cc1Cl)c1ccc(Cl)c(Cl)c1", "recorded.endpoint": "IC50", "measurement": 22.4}
{"compound": "O=S(=O)(Nc1nccs1)c1cc(Cl)c(NC(CN2CCOCC2)c2ccccc2)cc1F (stereo not shown) [Example 74, 2,2,2-trifluoroacetate]", "recorded.endpoint": "IC50", "measurement": 30}
{"compound": "O=S(=O)(Nc1cscn1)c1cc(Cl)c(N[C@H](c2cc(F)ccc2F)C(F)F)cc1F", "recorded.endpoint": "IC50", "measurement": 21.2}
{"compound": "O=S(=O)(Nc1cscn1)c1c(F)cc(NCc2c(CN3CCC3)cccc2C2CC2)cc1F [Example 211, 2,2,2-trifluoroacetate]", "recorded.endpoint": "IC50", "measurement": 19.2}
{"compound": "C[C@H](Nc1cc(F)c(S(=O)(=O)Nc2nccs2)cc1Cl)c1cccc(C(F)(F)F)c1", "recorded.endpoint": "IC50", "measurement": 5.25}

What value of measured IC50 is listed for O=S(=O)(Nc1cscn1)c1c(F)cc(NCc2c(F)cccc2CNC2CCC2)cc1F [Example 177, formate] ?
22.3

What value of IC50 has been reported for the following compound? O=S(=O)(Nc1cscn1)c1cc(Cl)c(NCc2ccccc2CCN2CCC2)cc1F [Example 261, formate]
26.3
